system: HOP-62 NSCLC; test: NCI tumour cell line growth inhibition, 48 h
MEASUREMENT_LABEL: TGI

Request: Requested field: TGI. Item: O=C1CCCCCCCCCCC1CN1CCCCC1 (stereo not drawn)
Result: > 100 µM

Request: Fill in the blank: the reported TGI of O=c1[nH]c2cc(Cl)ccc2nc1/C(=N\O)C(O)c1ccc([N+](=O)[O-])cc1 (stereo not drawn) is ____.
Result: > 100 µM

Request: Entry `CC(=O)N=C1N(/C=C2\C(=O)Oc3ccccc3C2=O)C(=O)/C(=C/c2ccc(Cl)cc2Cl)N1C` : reported TGI = ?
Result: > 100 µM

* * *

Would you kindly list TGI for each of these compounds?
test system: MDA-MB-435; assay: NCI tumour cell line growth inhibition, 48 h

Request: // fetch MDA-MB-435 TGI for `CC1=Nc2sc3c(c2C2=NCCN12)CCCC3`
Result: 91.6 µM

Request: State its TGI on MDA-MB-435: `O=C(Cc1ccccc1)Nn1c(-c2ccccc2)nc2ccccc2c1=O`
Result: > 100 µM

Request: Give TGI (MDA-MB-435) of the following compound: CC(C)(C)[Si](C)(C)OC1[C@@H](O[Si](C)(C)C(C)(C)C)[C@@H](CNC(=O)NC(=O)CCl)O[C@H]1n1cnc2c(NC(=O)Nc3ccccc3)ncnc21 (stereo not given in full)
Result: 1.75 µM

Request: Recorded TGI for `CCCCCCCCCCCCOCCCOP(=O)([O-])OCC[N+](C)(C)C` with MDA-MB-435, please?
Result: > 70 µM

Request: Return TGI measured with MDA-MB-435 given this compound: O=C1CC(c2cccc(Br)c2)n2cccc21 (stereo not given)
Result: > 100 µM

Request: Which measured TGI belongs to `O=S(=O)(/N=C(\NO)Nc1ccc(Cl)cc1)c1cccc2nsnc12` , tested on MDA-MB-435?
Result: > 100 µM

Request: Request body: readout TGI, system MDA-MB-435, query `O=c1c(Cl)c(Cl)c(=O)c2sc3cc(Cl)ccc3[nH]c1=2` . Return the value.
Result: > 100 µM

Request: // fetch MDA-MB-435 TGI for `CCn1c(-c2cc3ccccc3cc2O)nn(C(=O)c2c(Cl)cccc2Cl)c1=S`
Result: > 50 µM

Request: Please tell me: TGI of `CC(C)=CCC/C(C)=C/CC/C(C)=C/CC/C(=C/CC/C(C)=C\CC/C(C)=C/CC/C(C)=C/CC/C(C)=C/Cc1cc(O)ccc1O)CO` , system MDA-MB-435?
Result: > 31.8 µM

Request: What measured TGI is associated with `O=[N+]([O-])c1cc2c(cc1/C=N/n1c(CO)nc3ccccc31)OCO2` on MDA-MB-435?
Result: > 100 µM

* * *

test system: HCT-116 colon; assay: NCI tumour cell line growth inhibition, 48 h
Give measured TGI for each item. Keep answers brief.

Request: Could you tell me which TGI is on file for `Cn1c2ccc(Br)cc2c2c3c(c4c5ccccc5[nH]c4c21)C(=O)N(O)C3=O` ?
Result: 0.414 µM

Request: Find the recorded TGI belonging to `CSc1n[n+]2c(s1)SCCC2` and report it.
Result: > 100 µM

Request: Would you mind telling me what TGI value was observed for COC(=O)C(Cc1nc2ccccc2[nH]c1=O)C(=O)C(=O)Nc1ccc([N+](=O)[O-])cc1[N+](=O)[O-] (centres undefined) ?
Result: 46.5 µM

Request: Item under review: `C=C1C(=O)O[C@H]2[C@@H](O)[C@H](C)CCC[C@]3(C)O[C@H]3CC[C@@]3(C)O[C@@H]3C[C@@H]12` . Reported TGI?
Result: 6.52 µM

Request: // TGI lookup, key: CN/N=C(\C)C(CN(C)C)C(c1ccccc1)c1c(O)c2ccccc2oc1=O (centres undefined)
Result: > 100 µM

Request: What does the data say about its TGI? Entry: `CN(C)c1nc(=Nc2cccc(Cl)c2)ss1`
Result: 24.2 µM

Request: So what's the measured TGI for this one? COc1ccc(N2C(=O)C3c4[nH]c5ccc(F)cc5c4C4CCC(c5ccccc5)CC4C3C2=O)cc1 (centres undefined)
Result: > 100 µM

Request: Endpoint output: TGI of CC(=O)OCC1OC(Oc2cc(C)c(O)cc2C/C=C(\C)CC/C=C(\C)CC(=O)CC(C)C)C(O)C(OC(C)=O)C1OC(C)=O (centres undefined) . Value?
Result: > 50 µM

Request: Tell me the measured TGI of `CN(CCNCc1cn(C)c2c1ccc1ccccc12)CCNCc1cn(C)c2c1ccc1ccccc12` , please.
Result: 2.33 µM

Request: Give its TGI value. Item: CCOP(=O)(OCC)C(N)c1ccc(Cl)cc1 (centres undefined)
Result: > 100 µM

Request: Item under review: `COc1cccc(NC(=O)c2sc3nc4c(cc3c2N)C(=O)CCC4)c1` . Reported TGI?
Result: > 100 µM

Request: State the recorded TGI for this entry: `O=C1Nc2ccc(Cl)cc2/C1=C\c1c(Cl)nc2sccn12`
Result: 34 µM

Request: Name the recorded TGI for c1c[nH]c(C23C4C5C6C4C2C6C53)n1 (centres undefined) .
Result: > 100 µM

Request: Look up TGI for this compound: O=C1CCCCCCCCCCC1CN1CCCCC1 (centres undefined)
Result: > 100 µM

Request: // lookup TGI for O=C(O)CC1NCc2cc3ccccc3nc21 (centres undefined)
Result: > 100 µM

Request: Which TGI is listed for `COC(=O)c1cnc(Cl)cn1` ?
Result: > 100 µM

Request: // query TGI value for entry `O=[N+]([O-])c1cc2c(cc1/C=N/n1c(CO)nc3ccccc31)OCO2`
Result: > 100 µM

Request: Report TGI for CCCCON1C[C@H](OC(C)=O)C(OC(C)=O)[C@H](OC(C)=O)C1 (some centres undefined) please.
Result: > 100 µM

Request: Consider the compound shown here: `COc1cccc(/C=C/C(=O)c2ccc(Cl)cc2Cl)c1` What is its recorded TGI?
Result: 19.1 µM

* * *

system: UACC-257 melanoma; test: NCI tumour cell line growth inhibition, 48 h
MEASUREMENT_LABEL: TGI

Request: Please give the measured TGI for this molecule: `SCCSCCCSCCS`
Result: > 100 µM

Request: Query (molecule): `COc1c(O)cc2c(c1O)C(=O)/C(=C/c1ccc(O)cc1)CO2` ; field requested: TGI
Result: > 100 µM

Request: For `COc1ccc(/C=N\Nc2ccc([N+](=O)[O-])cn2)cc1OC` , what is its reported TGI?
Result: > 100 µM

Request: For `Cc1cc(N(CCC#N)S(C)(=O)=O)ccc1C=Nc1ccc(C(=O)NN2C(=O)/C(=C/c3ccc(N(CCC#N)CCC#N)cc3C)N=C2c2cc([N+](=O)[O-])ccc2Cl)cc1` , what is its reported TGI?
Result: > 100 µM

Request: What value of measured TGI is listed for COc1ccc(C2SCC(=O)N2NC(=O)c2ccc(NC(C)=O)cc2)cc1 (stereo not given) ?
Result: > 100 µM

Request: Bench note: what TGI did `O=c1[nH]nc(Cc2ccccc2)n1CCO` show?
Result: > 100 µM

Request: Field request: TGI | item: O=[N+]([O-])c1ccc(C=NCC2CCCN3CCCCC23)cc1 (stereo not given)
Result: > 100 µM

Request: Param item = O=CC12C3CCC1C2C(=O)C3 (stereo not given) ; retrieve measured TGI.
Result: > 100 µM

Request: Requested field: TGI. Item: `Cc1cc(C)c(NC(=S)NC(=O)c2ccccc2)cc1C`
Result: > 100 µM

Request: // TGI lookup, key: `Cc1c(C(=O)/C=C/c2ccc(N(C)C)cc2)c(=O)n(-c2ccccc2)n1C`
Result: > 100 µM

Request: So what does the record say about TGI for `O=S1Nc2c(Cl)cc(Cl)c3c(Cl)cc(Cl)c(c23)N1` ?
Result: > 100 µM

Request: Would you kindly share the measured TGI for O=C1c2cc(Cl)ccc2NC(=NCCCl)C2CSCN12 (stereo not given) ?
Result: > 100 µM

Request: // query TGI value for entry `O=[N+]([O-])CCc1cccc([N+](=O)[O-])c1`
Result: > 100 µM

Request: Which TGI value is on record for `C=C(Nc1ccc([N+](=O)[O-])cc1[N+](=O)[O-])c1c/c(=N\NC(N)=S)c2ccccc2o1` ?
Result: > 100 µM

Request: Which TGI is reported for this molecule? CC(=O)OC1COC(Nc2nc(NCc3ccccc3)n(C)c(=O)c2N=O)C(OC(C)=O)C1OC(C)=O (stereo not given)
Result: > 10 µM

* * *

Can you tell me TGI for the items I'm about to list?
test system: OVCAR-4 ovarian; assay: NCI tumour cell line growth inhibition, 48 h

Request: Look up TGI for this molecule: `Cc1ccc(S(=O)(=O)NNC(=O)c2cc(C)c(C)cc2N)cc1`
Result: > 100 µM

Request: Quick check: TGI of `O=Cc1cccc2c1Oc1c(cccc1C(=O)O)S2` ?
Result: > 100 µM

Request: Suppose we examine the molecule `O=C(O)CCC(=O)c1ccc(Cl)cc1` ; what TGI value has been reported?
Result: > 100 µM

Request: Entry `CC(=O)[CH-]C(=O)c1ccccc1.CC(=O)[CH-]C(=O)c1ccccc1.CCOCC[O-].CCOCC[O-].[Ti+4]` has what TGI?
Result: > 100 µM

Request: What value of TGI has been recorded for this entry: COc1cccc(C2c3cc4c(cc3OC(N3CCCC3)C2C)OCO4)c1O (centres undefined)
Result: > 94.2 µM

Request: Field request: TGI | item: N#C/C(=C1\SC(N=Nc2ccccc2)C(=O)N1c1ccccc1)c1nc2ccccc2[nH]1 (centres undefined)
Result: > 100 µM

Request: What does the record list as TGI for `CCOc1cccc2ccc[n+](CC)c12` ?
Result: > 100 µM

Request: For the molecule shown here, O=C1c2cc(Cl)ccc2NC(=NCCCl)C2CSCN12 (centres undefined) , give the reported TGI.
Result: > 100 µM

Request: May I ask what TGI has been recorded for CN/N=C(\C)C(CN(C)C)C(c1ccccc1)c1c(O)c2ccccc2oc1=O (centres undefined) ?
Result: > 100 µM
